Value source: ChEMBL document CHEMBL2203215

Hi there, I'd appreciate the recorded Activity for every entry that follows.
Tested on: Oryctolagus cuniculus
MEASUREMENT NOTES: Cardioprotective activity in New Zealand White rabbit ischemia/reperfusion model assessed as reduction of infarct size at total dose of 3.8 umol/kg administered bolus at 40th mins and 1st min before sustained ischemia
Type: functional
Set-up: scale not given: the % may be the effect or the level left
Give your result in % as a bare value.

Give its Activity value. Item: "O=C(CO[N+](=O)[O-])N1CCN(c2ncnc3[nH]cnc23)CC1"
37.3

Please do the same for "O=C(NCCO[N+](=O)[O-])c1nc2c(N3CCCCC3)ncnc2[nH]1" as well.
34.4

Please give the result for "O=[N+]([O-])OCCCCCCn1cnc2c(N3CCCCC3)ncnc21" too.
19.8

For "O=C(Cn1cnc2c(N3CCCCC3)ncnc21)NCCO[N+](=O)[O-]" then?
28.4

Try "O=C(CNc1ncnc2[nH]cnc12)NCCO[N+](=O)[O-]" next.
34.8

# iterate: "O=[N+]([O-])OC[C@H]1O[C@@H](n2cnc3c(N4CCCCC4)ncnc32)[C@H](O)[C@@H]1O"
17.9

Continue with "O=C(CCCCCO[N+](=O)[O-])N1CCN(c2ncnc3[nH]cnc23)CC1"
24.9

* * *

Test system: Oryctolagus cuniculus
MEASUREMENT NOTES: Toxicity in New Zealand White rabbit ischemia/reperfusion model assessed as heart rate at total dose of 3.8 umol/kg administered bolus at 20th mins of ischemia and 1st min of reperfusion measured at 180 mins reperfusion is period of reperfusion
Assay type: organism-based
CONDITION DESCRIPTION: in vivo, iv, 3 h
Exercise: for every item that follows, state its recorded Activity.

Looking for the measured Activity of "O=C(Cn1cnc2c(N3CCCCC3)ncnc21)NCCO[N+](=O)[O-]" , can you help?
276 bpm

Subsequent entry: "O=C(CCCCCO[N+](=O)[O-])N1CCN(c2ncnc3[nH]cnc23)CC1"
269 bpm

Field entry: O=C(CCCCC1CCSS1)N1CCN(c2ncnc3[nH]cnc23)CC1 (centres undefined)
271 bpm

Same lookup for "O=[N+]([O-])OC[C@H]1O[C@@H](n2cnc3c(N4CCCCC4)ncnc32)[C@H](O)[C@@H]1O" , please.
271 bpm

For "O=C(CO[N+](=O)[O-])N1CCN(c2ncnc3[nH]cnc23)CC1" then?
274 bpm

Note, next up: "O=C(CNc1ncnc2[nH]cnc12)NCCO[N+](=O)[O-]"
273 bpm

Would you kindly repeat that for "O=C(NCCO[N+](=O)[O-])c1nc2c(N3CCCCC3)ncnc2[nH]1" ?
269 bpm

Next entry: "O=[N+]([O-])OCCCCCCn1cnc2c(N3CCCCC3)ncnc21"
270 bpm

Then what about the molecule "Nc1ncnc2c1ncn2[C@@H]1O[C@H](CO[N+](=O)[O-])[C@@H](O)[C@H]1O" ?
275 bpm

* * *

Provide the recorded Activity for the entries that follow.
Test system: Oryctolagus cuniculus
MEASUREMENT NOTES: Toxicity in New Zealand White rabbit ischemia/reperfusion model assessed as heart rate at total dose of 3.8 umol/kg administered bolus at 40th mins and 1st min before sustained ischemia measured at 20 mins ischemia period of initial ischemic insult
Assay type: organism-based
CONDITION DESCRIPTION: in vivo, iv
Report the value in bpm with no unit label.

# lookup: Activity of "O=[N+]([O-])OCCCCCCn1cnc2c(N3CCCCC3)ncnc21"
276

"Nc1ncnc2c1ncn2[C@@H]1O[C@H](CO[N+](=O)[O-])[C@@H](O)[C@H]1O" , same question.
284

Now consider "O=C(CNc1ncnc2[nH]cnc12)NCCO[N+](=O)[O-]" and answer again.
282

What do you have for "O=C(CCCCCO[N+](=O)[O-])N1CCN(c2ncnc3[nH]cnc23)CC1" ?
278

Param item: "O=[N+]([O-])OC[C@H]1O[C@@H](n2cnc3c(N4CCCCC4)ncnc32)[C@H](O)[C@@H]1O"
279

Do the same for "O=C(NCCO[N+](=O)[O-])c1nc2c(N3CCCCC3)ncnc2[nH]1" please
274

Next record, please: O=C(CCCCC1CCSS1)N1CCN(c2ncnc3[nH]cnc23)CC1 (centres undefined)
279

Here is the next molecule: "O=C(CO[N+](=O)[O-])N1CCN(c2ncnc3[nH]cnc23)CC1"
278

Cool, now "O=C(Cn1cnc2c(N3CCCCC3)ncnc21)NCCO[N+](=O)[O-]"
280

* * *

Tested on: Oryctolagus cuniculus
MEASUREMENT NOTES: Toxicity in New Zealand White rabbit ischemia/reperfusion model assessed as blood pressure at total dose of 3.8 umol/kg administered bolus at 40th mins and 1st min before sustained ischemia measured at 20 mins ischemia period of initial ischemic insult
Format: organism-based
CONDITION DESCRIPTION: in vivo, iv
I'd appreciate it if you could supply Activity values for the items below.
Report as a plain number; the unit mmHg is understood.

What measured Activity goes with "O=C(NCCO[N+](=O)[O-])c1nc2c(N3CCCCC3)ncnc2[nH]1" ?
112

Try the molecule "O=[N+]([O-])OCCCCCCn1cnc2c(N3CCCCC3)ncnc21"
112

Lookup "O=[N+]([O-])OC[C@H]1O[C@@H](n2cnc3c(N4CCCCC4)ncnc32)[C@H](O)[C@@H]1O"
113

Now this one: "Nc1ncnc2c1ncn2[C@@H]1O[C@H](CO[N+](=O)[O-])[C@@H](O)[C@H]1O"
102

How about "O=C(CCCCCO[N+](=O)[O-])N1CCN(c2ncnc3[nH]cnc23)CC1" ?
117

Queued: "O=C(CNc1ncnc2[nH]cnc12)NCCO[N+](=O)[O-]"
110

Another molecule: "O=C(Cn1cnc2c(N3CCCCC3)ncnc21)NCCO[N+](=O)[O-]"
115

And the next one, "O=C(CO[N+](=O)[O-])N1CCN(c2ncnc3[nH]cnc23)CC1" ?
114

Consider next the molecule O=C(CCCCC1CCSS1)N1CCN(c2ncnc3[nH]cnc23)CC1 (centres undefined) in the same way.
106

* * *

Tested on: Oryctolagus cuniculus
MEASUREMENT NOTES: Toxicity in New Zealand White rabbit ischemia/reperfusion model assessed as blood pressure at total dose of 3.8 umol/kg administered bolus at 20th mins of ischemia and 1st min of reperfusion measured at 180 mins reperfusion is period of reperfusion
Format: organism-based
CONDITION DESCRIPTION: in vivo, iv, 3 h
EXPERIMENTAL ENDPOINT: Activity (mmHg)
Output spec: scalar in mmHg, unitless text.

I'd like to know its Activity. The molecule in question is "O=[N+]([O-])OCCCCCCn1cnc2c(N3CCCCC3)ncnc21"
104

# iterate: "O=C(CO[N+](=O)[O-])N1CCN(c2ncnc3[nH]cnc23)CC1"
109

Consider next the molecule "O=C(Cn1cnc2c(N3CCCCC3)ncnc21)NCCO[N+](=O)[O-]" in the same way.
102

Now this one: "O=[N+]([O-])OC[C@H]1O[C@@H](n2cnc3c(N4CCCCC4)ncnc32)[C@H](O)[C@@H]1O"
110

Same for "O=C(CNc1ncnc2[nH]cnc12)NCCO[N+](=O)[O-]"
104

Another: "Nc1ncnc2c1ncn2[C@@H]1O[C@H](CO[N+](=O)[O-])[C@@H](O)[C@H]1O"
98

Same read-out for O=C(CCCCC1CCSS1)N1CCN(c2ncnc3[nH]cnc23)CC1 (centres undefined) ?
101

Try this molecule next: "O=C(CCCCCO[N+](=O)[O-])N1CCN(c2ncnc3[nH]cnc23)CC1"
112

Entry to check: "O=C(NCCO[N+](=O)[O-])c1nc2c(N3CCCCC3)ncnc2[nH]1"
103
